Read-out: Interleukin-6 (IL6), IL6 (gene 3569)
Test: BSK_CASM3C_IL6: BioMAP Diversity Plus: CASM3C Assay for Interleukin-6 (IL6) Biomarker Activity for (AID 2283040)
Conditions: primary human coronary artery smooth muscle cells; actives raise or lower the signal
Calls of active or inactive are those of the source. Rule for the calls: active = hit-call score of the fitted dose curve at least 0.9, where 1 is the maximum; inactive = score below 0.9.
Lab note: assign the record to one of YES for active, NO for inactive

Consider the following illustrative entries.
{"columns": ["Molecule", "Group label"],
 "data": [
  ["O=C1CCCN1CCO", "NO"],
  ["C=CCOc1c(Br)cc(Br)cc1Br", "YES"]
]}

Request: Write down the call the test reported for this molecule. Item: c1ccc2c(c1)ccc1ncccc12
Result: NO

Request: Follow-up item: O=C(Cl)c1cc(C(=O)Cl)cc(C(=O)Cl)c1
Result: YES
